This collection of values is drawn from patent US9546152B2.

# pIC50 values compiled below
- study-system: rat orexin-1 receptor (Rattus norvegicus (Rat))
- Sequence (P56718 whole entry): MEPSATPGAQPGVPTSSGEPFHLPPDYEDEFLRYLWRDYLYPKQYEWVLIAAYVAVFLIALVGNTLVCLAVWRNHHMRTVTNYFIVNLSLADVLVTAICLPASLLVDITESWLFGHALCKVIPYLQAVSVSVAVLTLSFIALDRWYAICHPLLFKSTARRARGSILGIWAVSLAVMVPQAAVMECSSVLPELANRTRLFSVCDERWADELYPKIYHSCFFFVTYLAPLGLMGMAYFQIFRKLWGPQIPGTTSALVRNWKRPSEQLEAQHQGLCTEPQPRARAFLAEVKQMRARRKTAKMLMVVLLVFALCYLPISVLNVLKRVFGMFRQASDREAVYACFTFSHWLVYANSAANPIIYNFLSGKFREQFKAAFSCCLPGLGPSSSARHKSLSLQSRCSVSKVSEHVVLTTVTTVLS
- protocol-notes: FLIPR Ca2+ Flux Assay, orexin-1 receptor
- Format: cell-based
- test-conditions: CHO cells expressing the rat orexin-1 receptor; agonist 70 pM Ala-6,12 human orexin-A; read-out: hOX1R FLIPR IC50
pIC50: −log10 of the molar value.
property-measured: pIC50

> print(dat)
                                   molecule  observed.result
1  Cc1c(C#N)ccnc1O[C@@H]1CC[C@@H](C)N(C(=O)c2ccc(OCF)nc2-n2nccn2)C1           < 5.00
2  CCOc1ncccc1C(=O)N1C[C@H](Oc2nccc(C#N)c2C)CC[C@H]1C           < 5.00
3  COc1ccc(C(=O)N2C[C@H](Oc3nccc(C#N)c3C)CC[C@H]2C)c(SC)n1           < 5.00
4  COc1ccc(C(=O)N2C[C@H](Oc3nccc(C#N)c3C)CC[C@H]2C)c(N(C)C)n1           < 5.00
5  C[C@@H]1CC[C@@H](Oc2nccc(C#N)c2C#N)CN1C(=O)c1ccccc1-n1nccn1           < 5.00

====

- study-system: human orexin-2 receptor (Homo sapiens (Human), UniProt O43614)
- Sequence (O43614 whole entry): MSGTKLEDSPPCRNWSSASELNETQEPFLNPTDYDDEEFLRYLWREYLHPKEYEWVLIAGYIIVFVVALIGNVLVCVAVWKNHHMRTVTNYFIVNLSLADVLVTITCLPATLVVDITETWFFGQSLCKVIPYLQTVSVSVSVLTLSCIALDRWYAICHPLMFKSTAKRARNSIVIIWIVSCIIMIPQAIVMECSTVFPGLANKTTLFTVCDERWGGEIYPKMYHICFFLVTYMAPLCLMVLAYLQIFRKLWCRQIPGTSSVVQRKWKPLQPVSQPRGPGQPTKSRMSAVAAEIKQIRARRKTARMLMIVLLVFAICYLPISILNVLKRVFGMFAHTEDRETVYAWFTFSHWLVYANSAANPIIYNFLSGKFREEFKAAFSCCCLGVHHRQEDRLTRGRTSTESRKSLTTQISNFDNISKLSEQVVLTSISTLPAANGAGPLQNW
- protocol-notes: radioligand binding assay, orexin-2 receptor
- test-conditions: membranes prepared from CHO cells expressing the OX2 receptor; read-out: hOX2R BIND hKi
property-measured: Ki (nM)

> print(dat)
                                   molecule  observed.result
1  Cc1c(C#N)ccnc1O[C@@H]1CC[C@@H](C)N(C(=O)c2ccccc2OC(C)C)C1              0.6
2  Cc1c(C#N)ccnc1O[C@@H]1CC[C@@H](C)N(C(=O)c2ccsc2-n2nccn2)C1              0.7
3  COc1ccc(C(=O)N2C[C@H](Oc3nccc(C#N)c3C)CC[C@H]2C)c(-n2nccn2)c1              1.3
